Give relative viability for every item shown.
Test system: LXF-289
measurement.description: relative viability (nuclei count vs DMSO), 5 days (fraction); higher = more cells survive
condition.context: first compound 2.53 µM
Give bare numbers.

// known answers, use as guide
{"molecule": "CCCCCCCCCCCC1=C(O)C(=O)C=C(O)C1=O [Embelin] + NC(=O)Nc1cc(-c2cccc(F)c2)sc1C(=O)N[C@H]1CCCNC1 [AZD7762] (partner 0.2 µM)", "tgt": "LXF-289", "relative viability": 1.14}
{"molecule": "CCCCCCCCCCCC1=C(O)C(=O)C=C(O)C1=O [Embelin] + CC(=O)Nc1cccc(-n2c(=O)n(C3CC3)c(=O)c3c(Nc4ccc(I)cc4F)n(C)c(=O)c(C)c32)c1 [Trametinib] (partner 0.02 µM)", "tgt": "LXF-289", "relative viability": 0.722}
{"molecule": "CCCCCCCCCCCC1=C(O)C(=O)C=C(O)C1=O [Embelin] + CC1(C)CCC(c2ccc(Cl)cc2)=C(CN2CCN(c3ccc(C(=O)NS(=O)(=O)c4ccc(N[C@H](CCN5CCOCC5)CSc5ccccc5)c(S(=O)(=O)C(F)(F)F)c4)cc3)CC2)C1 [Navitoclax] (partner 0.5 µM)", "tgt": "LXF-289", "relative viability": 1.03}

Attention now shifts to the item below.
Query CCCCCCCCCCCC1=C(O)C(=O)C=C(O)C1=O [Embelin] + C[C@]1(O)C[C@@H](c2nc(-c3ccc4ccc(-c5ccccc5)nc4c3)c3c(N)nccn32)C1 [Linsitinib] (partner 1 µM) on LXF-289; relative viability returned: 1

----------
System: NCI-H2009
measurement.description: relative viability (nuclei count vs DMSO), 5 days (fraction); higher = more cells survive
condition.context: first compound 0.03162 µM
In plain terms, low relative viability, meaning strictly below 0.8, gives label 1, and everything else gives label 0.

{"molecule": "CC(C)Oc1cc(Nc2nc(N[C@@H](C)c3ccc(F)cn3)ncc2Cl)n[nH]1 [AZ23] + N=C(N)NC(=N)NCCc1ccccc1 [Phenformin] (partner 250 µM)", "tgt": "NCI-H2009", "cat": "label 1"}
{"molecule": "CC(C)Oc1cc(Nc2nc(N[C@@H](C)c3ccc(F)cn3)ncc2Cl)n[nH]1 [AZ23] + CS(=O)(=O)N1CCN(Cc2cc3nc(-c4cccc5[nH]ncc45)nc(N4CCOCC4)c3s2)CC1 [Pictilisib] (partner 1 µM)", "tgt": "NCI-H2009", "cat": "label 0"}
{"molecule": "CC(C)Oc1cc(Nc2nc(N[C@@H](C)c3ccc(F)cn3)ncc2Cl)n[nH]1 [AZ23] + C[C@@H](Oc1cc(-c2cnn(C3CCNCC3)c2)cnc1N)c1c(Cl)ccc(F)c1Cl [Crizotinib] (partner 1 µM)", "tgt": "NCI-H2009", "cat": "label 0"}

q: Is relative viability of CC(C)Oc1cc(Nc2nc(N[C@@H](C)c3ccc(F)cn3)ncc2Cl)n[nH]1 [AZ23] + Nc1ncn([C@H]2C[C@H](O)[C@@H](CO)O2)c(=O)n1 [Decitabine] (partner 2 µM) strictly below 0.8?
a: label 1

q: Is relative viability of CC(C)Oc1cc(Nc2nc(N[C@@H](C)c3ccc(F)cn3)ncc2Cl)n[nH]1 [AZ23] + O=C(c1cc(Cc2n[nH]c(=O)c3ccccc23)ccc1F)N1CCN(C(=O)C2CC2)CC1 [Olaparib] (partner 8 µM) strictly below 0.8?
a: label 1

q: Is relative viability of CC(C)Oc1cc(Nc2nc(N[C@@H](C)c3ccc(F)cn3)ncc2Cl)n[nH]1 [AZ23] + CC(C)C[C@H](NC(=O)[C@H](Cc1ccccc1)NC(=O)c1cnccn1)B(O)O [Bortezomib] (partner 0.002 µM) strictly below 0.8?
a: label 0
